- assay.summary: Quantitative highthroughput screen to assess conditional lethalithy of P12 Ichikawa cells grown in RPMI1640 with dialyzed fetal bovine serum (RPMI+ds) (AID 1963880); note: nearly all actives have a fitted effect of over 35% in size; note: potency is the fitted concentration of half-maximal effect;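 for viability: 100% = DMSO wells and 0% = empty wells on each plate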
- conditions.used: ATP luminescence, 48 h; P12-Ichikawa viability; series mostly up to 45.8 µM
Records with an inconclusive call do not appear. Activity calls are given as the source filed them. Calls come from the whole dose curve; as a rule, active = well fitted cell-killing curve with a large enough effect; inconclusive = small, poorly fitted or top-dose-only effect; inactive = flat fitted curve, though single readings scatter.
measurement.type: Potency

These recorded examples may help you get a feel for the data.
compound: CCOC(=O)N1CCC(=C2c3ccc(Cl)cc3CCc3cccnc32)CC1
Potency: inactive

compound: CN1CC[C@@H](c2c(O)cc(O)c3c(=O)cc(-c4ccccc4Cl)oc23)[C@@H](O)C1
Potency: 0.59 µM (active)

compound: Cc1nc(-c2ccc(OCC(C)C)c(C#N)c2)sc1C(=O)O
Potency: inactive

compound: CC(C)(C)c1cc(C(=O)O)c(NC(=O)Nc2ccc3[nH]ncc3c2)s1
Potency: inactive

compound: CN1CCN2c3ncccc3Cc3ccccc3C2C1 (stereo not given)
Potency: inactive

compound: O=c1[nH]cnc2[nH]ncc12
Potency: inactive

compound: COC(=O)[C@H](c1ccccc1Cl)N1CCc2sccc2C1
Potency: 11.8 µM (active)

compound: N#Cc1ccc(NC(=O)Nc2ccccc2Br)c2n[nH]nc12
Potency: inactive

compound: CN(c1nccc(=O)[nH]1)C1CCN(c2nc3ccccc3n2Cc2ccc(F)cc2)CC1
Potency: inactive

compound: COc1ccc(C2Sc3ccccc3N(CCN(C)C)C(=O)C2OC(C)=O)cc1 (stereo not given)
Potency: inactive

query: Record request: Potency value, item Cc1c(Cn2c(C)nc3c(C(=O)O)cc(N4CCOCC4)cc32)cccc1C(F)(F)F
result: inactive

query: Record request: Potency value, item CNC(=O)c1ccc(-c2cnc3ncc(Cc4ccc5ncccc5c4)n3n2)cc1F
result: inactive

query: Record request: Potency value, item Cc1onc(-c2ccccc2)c1C(=O)N[C@@H]1C(=O)N2[C@@H](C(=O)O)C(C)(C)S[C@@H]12
result: 1.05 µM (active)

query: Record request: Potency value, item CC(=O)Nc1cccc(-n2c(=O)n(C3CC3)c(=O)c3c(Nc4ccc(I)cc4F)n(C)c(=O)c(C)c32)c1
result: 4.69 µM (active)

query: Record request: Potency value, item c1ccc(CNc2nc(N3CCOc4ccccc43)nc3c2CCCC3)cc1
result: inactive

----------
- assay.summary: Quantitative highthroughput screen to assess conditional lethalithy of NOMO1 cells grown in Human Plasma-Like Medium with dialyzed fetal bovine serum (HPLM+ds) (AID 1963878); note: nearly all actives have a fitted effect of over 35% in size;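 for viability: 100% = DMSO wells and 0% = empty wells on each plate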
- conditions.used: NOMO1 AML cells in HPLM+ds, CellTiter-Glo viability, 48 h; series mostly up to 45.8 µM
Records with an inconclusive call do not appear. Calls of active or inactive are those of the source. Calls come from the whole dose curve; as a rule, active = well fitted cell-killing curve with a large enough effect; inconclusive = small, poorly fitted or top-dose-only effect, or effect the other way; inactive = no such curve, though single readings can be large or run the other way.
Respond only with the outcome that fits, drawn from active, inactive

query: Just curious, what result did COc1cc(C)c(Sc2cnc(NC(=O)c3ccc(CNC(C)C(C)(C)C)cc3)s2)cc1C(=O)N1CCN(C(C)=O)CC1 (stereo not drawn) get here?
result: active

query: Just curious, what result did Nc1nc(OCc2ccccc2)c2[nH]cnc2n1 get here?
result: inactive

query: Just curious, what result did C[C@@]12C(=O)OC(=O)[C@@]1(C)C1CCC2O1 get here?
result: active

----------
Assignment: determine reported activity (max response) for the given molecules.
- assay.summary: Cellular viability qHTS for adrenocortical cancer (ACC) cell line SW-13 (AID 1963989);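 note: cells grown in serum-free medium with ITS supplement; % is set by controls: 0 for no effect and ±100 for the full control effect; nearly all actives have a fitted effect of over 65% in size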
- conditions.used: SW-13 ACC cells viability, CellTiter-Glo, 48 h; hits give low values
Records with an inconclusive call do not appear.
Numbers only; they are read as %.

query: Record request: activity (max response) value, item O=C1CC2(CCCC2)CC(=O)N1
result: 11.4

query: Record request: activity (max response) value, item NC(=O)c1cccc(-c2cccc(OC(=O)NC3CCCCC3)c2)c1
result: -29.9

query: Record request: activity (max response) value, item CCC1C(=O)OCC1Cc1cncn1C (stereo not drawn)
result: 6.41
